# System: LXRa:RXRa (NR concentration 270 nM, RXRa partner concentration 90 nM)
# procedureDetails: PBM binding z-score (relative to random genomic background probes); higher = stronger binding; sequences stand for … in GC…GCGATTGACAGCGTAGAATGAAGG
// reported PBM binding z-score per item
Lab note: write the figure by itself, no unit.

// known answers, use as guide
{"residues": "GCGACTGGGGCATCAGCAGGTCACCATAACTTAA", "measuredOn": "LXRa:RXRa (NR concentration 270 nM, RXRa partner concentration 90 nM)", "PBM binding z-score": 1.37}
{"residues": "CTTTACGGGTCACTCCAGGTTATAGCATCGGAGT", "measuredOn": "LXRa:RXRa (NR concentration 270 nM, RXRa partner concentration 90 nM)", "PBM binding z-score": 7.71}
{"residues": "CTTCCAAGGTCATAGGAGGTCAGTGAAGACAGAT", "measuredOn": "LXRa:RXRa (NR concentration 270 nM, RXRa partner concentration 90 nM)", "PBM binding z-score": 7.56}

Prompt: Please provide the recorded PBM binding z-score for `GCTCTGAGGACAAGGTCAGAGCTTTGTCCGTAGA` , tested on LXRa:RXRa (NR concentration 270 nM, RXRa partner concentration 90 nM).
Response: 1.56

Prompt: Please provide the recorded PBM binding z-score for `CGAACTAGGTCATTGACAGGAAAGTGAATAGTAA` , tested on LXRa:RXRa (NR concentration 270 nM, RXRa partner concentration 90 nM).
Response: 2.6

Prompt: Please provide the recorded PBM binding z-score for `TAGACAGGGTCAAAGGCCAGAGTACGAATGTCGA` , tested on LXRa:RXRa (NR concentration 270 nM, RXRa partner concentration 90 nM).
Response: 4.51

---

// reported PBM binding z-score per item
# System: RARb homodimer (NR concentration 270 nM)
# procedureDetails: PBM binding z-score (relative to random genomic background probes); higher = stronger binding; sequences stand for … in GC…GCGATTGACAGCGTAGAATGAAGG
Lab note: write the figure by itself, no unit.

Prompt: What value of measured PBM binding z-score is listed for `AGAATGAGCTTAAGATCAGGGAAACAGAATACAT` ?
Response: -0.611

Prompt: What value of measured PBM binding z-score is listed for `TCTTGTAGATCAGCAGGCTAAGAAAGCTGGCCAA` ?
Response: -0.81

Prompt: What value of measured PBM binding z-score is listed for `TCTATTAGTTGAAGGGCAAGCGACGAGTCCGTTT` ?
Response: 1.28

Prompt: What value of measured PBM binding z-score is listed for `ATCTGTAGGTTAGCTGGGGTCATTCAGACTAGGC` ?
Response: 3.81

Prompt: What value of measured PBM binding z-score is listed for `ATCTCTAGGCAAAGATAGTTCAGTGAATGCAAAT` ?
Response: 0.533

Prompt: What value of measured PBM binding z-score is listed for `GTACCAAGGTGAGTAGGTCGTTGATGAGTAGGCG` ?
Response: 1.15

---

# Tested on: RARg homodimer (NR concentration 270 nM)
# procedureDetails: PBM binding z-score (relative to random genomic background probes); higher = stronger binding; sequences stand for … in GC…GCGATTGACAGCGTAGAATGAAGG
Please assign a class to every record based on measured PBM binding z-score, with ranges range 1 (below 0.9), range 2 (0.9 to below 2), range 3 (2 or more)

Example cases with answers are listed next.
{"residues": "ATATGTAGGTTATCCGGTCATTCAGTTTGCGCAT", "group": "range 2"}
{"residues": "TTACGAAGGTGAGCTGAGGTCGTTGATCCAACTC", "group": "range 2"}
{"residues": "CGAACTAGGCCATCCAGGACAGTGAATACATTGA", "group": "range 1"}
{"residues": "ATATGTAGGTTAGCTGGGGACATTCAGACTAGGC", "group": "range 2"}
{"residues": "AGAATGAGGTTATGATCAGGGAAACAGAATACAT", "group": "range 2"}
{"residues": "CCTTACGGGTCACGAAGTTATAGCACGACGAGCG", "group": "range 3"}

Prompt: Which class holds `CCTAGTTGGTCAAGGTCACAGACGCTATAGGTAC` ?
Response: range 3

Prompt: Which class holds `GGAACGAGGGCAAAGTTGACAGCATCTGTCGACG` ?
Response: range 3

Prompt: Which class holds `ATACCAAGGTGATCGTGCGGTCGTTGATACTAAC` ?
Response: range 1

Prompt: Which class holds `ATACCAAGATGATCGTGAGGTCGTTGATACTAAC` ?
Response: range 1

Prompt: Which class holds `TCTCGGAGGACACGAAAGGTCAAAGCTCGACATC` ?
Response: range 3

Source of measurements: the supplement of paper PMC6555819
